Target: T1, recombinant human lymphotoxin-α homotrimer (human LTα3) (human, UniProt P01374 35-205)
T1 construct: Coated on plates in the ELISAs; also called rhLTα; lymphotoxin-α3 trimer
T1 sequence (looked up): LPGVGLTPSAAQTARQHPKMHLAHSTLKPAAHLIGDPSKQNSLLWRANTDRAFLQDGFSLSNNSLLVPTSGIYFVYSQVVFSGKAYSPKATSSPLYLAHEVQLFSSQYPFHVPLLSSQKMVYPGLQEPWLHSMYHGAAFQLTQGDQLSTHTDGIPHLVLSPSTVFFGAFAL
Test: BIACORE (rhLTα)
Kindly state Kd for each of the entries shown.
Your answer should be a plain number; it is taken to be in nM.

For reference, reported Kd for chimeric anti-LTα antibody 2C8 (antibody, human IgG1, kappa, V domains shown, Murine variable domains on human kappa and human IgG1; also called 2C8 chimera; 2C8.chimera) VH: EVQLQQSGPELVKPGASVKLSCKASGYTFTSYVIHWVKQKPGQGLEWIGYNNPYNDGTNYNEKFKGKATLTSDKSSSTAYMELSSLTSEDSAVYYCSRPTMLPWFAYWGQGTTLTVSA VL: DIVMTQSHKFMSTSVGDRVSITCKASQAVSSAVAWYQQKPGQSPKLQIYSASHRYTGVPDRFTGSGSGTDFTFTISSVQAEDLAVYYCQQHYSTPWTFGGGTKVEIKR stands at 0.6

For reference, reported Kd for humanized 2C8.v7 (antibody, V domains shown, Human kappa / IgG1; copies: 2 + 2) VH: EVQLVESGGGLVQPGGSLRLSCAASGYTFTSYVIHWVRQAPGKGLEWVGYNNPYNDGTNYNEKFKGRATISSDKSKNTAYLQMNSLRAEDTAVYYCSRPTMLPWFAYWGQGTLVTVSS VL: DIQMTQSPSSLSASVGDRVTITCRASQAVSSAVAWYQQKPGKAPKLLIYSASHRYTGVPSRFSGSGSGTDFTLTISSLQPEDFATYYCQQHYSTPWTFGQGTKVEIKR stands at 0.4

For reference, reported Kd for humanized 2C8.v12 (antibody, V domains shown, Human kappa / IgG1; also called Version 12; copies: 2 + 2) VH: EVQLVESGGGLVQPGGSLRLSCAASGYTFTSYVIHWVRQAPGKGLEWVGYNNPYNDGTNYNEKFKGRFTISSDKSKNTAYLQMNSLRAEDTAVYYCSRPTMLPWFAYWGQGTLVTVSS VL: DIQMTQSPSSLSASVGDRVTITCRASQAVSSAVAWYQQKPGKAPKLLIYSASHRYTGVPSRFSGSGSGTDFTLTISSLQPEDFATYYCQQHYSTPWTFGQGTKVEIKR stands at 0.07
